Consider the following sequences; for each one, report its apparent KD of MS2 coat protein.
Test system: MS2 coat protein
PROTOCOL NOTES: apparent KD of MS2 coat protein; designed switch direction (-1 OFF switch, 1 ON switch): -1; higher = weaker reporter binding
MEASUREMENT PARAMETERS: input ligand: none
Give your result in nM as a bare value.

(Q) Entry CUGAGCAGACGGAGAUCCAACAUGAGGAUCACCCAUGUCUCAAAAGCUUUUUGCUUGUCUUAUCCUCCUCUGUUCAC [Esqutian] (Eterna round: R96, puzzle: Sensor v3, turn-off variant 1) : reported apparent KD of MS2 coat protein = ?
(A) 16.1

(Q) Which measured apparent KD of MS2 coat protein value corresponds to GUUAUGUCAGGAUAUGCUAAUGAUGAAUGAUCAGACAUAAUGUAGAAGGGACAUGAGGAUCACCCAUGUAAUAU [EX4 #6] (Eterna round: R97, puzzle: Exclusion 4) ?
(A) 23.3

(Q) Tell me the measured apparent KD of MS2 coat protein of ACAUGAGGAUCACCCAUGUGCACGUAAUGGCUCAUGUAGAGUGAGGAUAUGCGUGACGAACGAGCGCAGAAGGCACAAGACUGG [Deportation 16 - Jieux - Exclusion NG 3] (Eterna round: R96, puzzle: Exclusion NG 3) , please.
(A) 77.5

====

Tested on: MS2 coat protein
PROTOCOL NOTES: apparent KD of MS2 coat protein; designed switch direction (-1 OFF switch, 1 ON switch): -1; higher = weaker reporter binding
MEASUREMENT PARAMETERS: input ligand: microRNA oligo, concentration not stated
Consider the following sequences; for each one, report its apparent KD of MS2 coat protein.
The reply should contain only the number, in nM.

(Q) Fill blank: measured apparent KD of MS2 coat protein of the sequence GGGAGGAGUGUAGGAUAUCCGACAAUCCUGUCAGGAGAAGGGCACCCUACUUGAGGAUCACCCAAGUCUCCGGGUGCUCAAGAA [Mutated MS2 EX1.15] (Eterna round: R96, puzzle: Exclusion NG 1) is ____.
(A) 8.22

(Q) Would you kindly share the measured apparent KD of MS2 coat protein for GCAGCAUAGUUUACUAACUGUUACAUGAGGAUCACCCAUGUUCAGGAUAUGGUCUGGAUUACAGGCCAGAAGGGAGCAAGCUGC [Eli exng3 - 027] (Eterna round: R96, puzzle: Exclusion NG 3) ?
(A) 10.7

(Q) I'd like to know its apparent KD of MS2 coat protein. The sequence in question is AUCAGCUCGUGAGGAUAUACAUGCGUGCUUCGGCACGAAUUUAAGAUCACAUGAGGAUCACCCAUGUAGAAGGUACGAGCUGAU [ENG2/3-C3] (Eterna round: R96, puzzle: Exclusion NG 2)
(A) 287

(Q) # query: apparent KD of MS2 coat protein of entry UACCUAUAGUAAGGAUAUCAUUGCGAUUAGCUAUGAGAAGGUACACAUGAGGAUCACCCAUGUCCUCCAAUUAACCGAAAGGUA [7th something] (Eterna round: R96, puzzle: Exclusion NG 1)
(A) 170

(Q) Consider the sequence shown here: ACAUGUGUUGUAGGAUAUAGGAGACAUGAGGAUCACCCAUGUUGAUUCAUGUCUAUGGAAACGUCCUAGAAGGACGACAAUAUG [Ex NG2 #19] (Eterna round: R96, puzzle: Exclusion NG 2) What is its recorded apparent KD of MS2 coat protein?
(A) 179

(Q) Can you look up the measured apparent KD of MS2 coat protein of UUAGAAUUGUUAGGAUAUUAAUUAUUGUUUAGUAUGAUCUACAUGAGGAUCACCCAUGUUAAAUAUAAGAAGGAACGUUAGAUU [JR_ExcNG2_Sub095] (Eterna round: R96, puzzle: Exclusion NG 2) for me?
(A) 35.6

(Q) Fill blank: measured apparent KD of MS2 coat protein of the sequence CUCGUGCAGCUUUGCUGUACGAGUACAUGAGGAUCACCCAUGUAGGAUAUGGUACGCUUUGCGUGCCAGAAGGACGUGCGUUAG [JL EXNG3 1.41] (Eterna round: R96, puzzle: Exclusion NG 3) is ____.
(A) 25.9

(Q) apparent KD of MS2 coat protein for GCGCCAUCGUGAGAUGGCGUAAUUACAUGAGGAUCACCCAUGUAGGAUAUCGAUUGCUUUGCAGUCGAGAAGGGCAAGGUUUGU [JL ENG3 3.84] (Eterna round: R96, puzzle: Exclusion NG 3) ?
(A) 19.9

(Q) Suppose we examine the sequence GUCAGCUCGUGAGGAUAUAUAUUAACAUGAGGAUCACCCAUGUAAGAUCAGCUUCGGCAGUUAAUAUAGAAGGCACGAGCUGAC [ENG2/14-A1] (Eterna round: R96, puzzle: Exclusion NG 2) ; what apparent KD of MS2 coat protein value has been reported?
(A) 137

(Q) What value of apparent KD of MS2 coat protein has been recorded for this entry: UGUAUUAGGUCAGGAUAUACAUGAGGAUCACCCAUGUACAUGGAGCGAGUACAGUAUCAUGCAAGGUAGAAGGGACAGUCGACG [success! :D] (Eterna round: R96, puzzle: Exclusion NG 2)
(A) 15.7

(Q) Look at this sequence and give its reported apparent KD of MS2 coat protein. UUGUUAUAUGUAGGAUAUGCAUAUUAUUAUUAUGCAGAAGGACAUGAGGAUCACCCAUGUAUAUUGUUAUUAUAUAUUAUAUAU [Title] (Eterna round: R96, puzzle: Exclusion NG 1)
(A) 19

(Q) Which apparent KD of MS2 coat protein value belongs to GUAAACCGGUGAGGAUAUUUAUAAUAGAGCUUUAUGAUAUACAUGAGGAUCACCCAUGUUACUUUAAAGAAGGCAUCGGAAAUG [Mat - Exclusion NG 2 - Mod of JL - D95] (Eterna round: R96, puzzle: Exclusion NG 2) ?
(A) 15.5

(Q) Please give the measured apparent KD of MS2 coat protein for this sequence: AAUUAUUUAUGAGGAUAUUGUGGUGAAACACCACAAGAAGGCAUGAUACACAUGAGGAUCACCCAUGUGAGCCUUAUGCAUAUA [Ex NG1 #57] (Eterna round: R96, puzzle: Exclusion NG 1)
(A) 16.5

(Q) Entry GCUUUUGGGCAAGGAUAUCCUGCGCGGUUCCGGUUCGUGUCUGUCACAUGAGGAUCACCCAUGUGGGAGAAGGUGCCUGCGGUG [Design 73] (Eterna round: R96, puzzle: Exclusion NG 2) : reported apparent KD of MS2 coat protein = ?
(A) 11.7

(Q) Please report the recorded apparent KD of MS2 coat protein for AAUUAUUGAUGAGGAUAUUGUGGUGAAACACCACAAGAAGGCAUUAUACACAUGAGGAUCACCCAUGUGAGCCUGAUGCAUAUA [Ex NG1 #56] (Eterna round: R96, puzzle: Exclusion NG 1) .
(A) 13.2

(Q) Tell me the measured apparent KD of MS2 coat protein of AGCUGUGGCCGAGGAUAUCCACAUGAGGAUCACCCAUGUUGAUACGCCGUUAAAGGCGAUAUAAGGGAGAAGGCGGUCUCAGCA [Eli eng2 - 051] (Eterna round: R96, puzzle: Exclusion NG 2) , please.
(A) 7.18

(Q) Field request: apparent KD of MS2 coat protein | item: CAUGAUUGGCGAGGAUAUUGAUCUAGUUGGCGACGAGAAGGCGCCUGUCACAUGAGGAUCACCCAUGUGAAUCUGGUGAAAGAG [Ex NG1 #89] (Eterna round: R96, puzzle: Exclusion NG 1)
(A) 18.5

(Q) Param item = UGUUGUUACGCAGGAUAUGUAUGAGGAUCACCCAUAAGAGUAUAUUUACCAUGAGGAUCACCCAUGUAGAAGGGCGGGUUAACA [pwkr exNG2 2xF5 1xFMN.10] (Eterna round: R96, puzzle: Exclusion NG 2) ; retrieve measured apparent KD of MS2 coat protein.
(A) 109
